Every entry's value here was drawn from the supplement of paper PMC11908140.

Consider the following variants and their measured 8OG:A repair function score readings.
B1: library; numbered along this chain (parent)
chain: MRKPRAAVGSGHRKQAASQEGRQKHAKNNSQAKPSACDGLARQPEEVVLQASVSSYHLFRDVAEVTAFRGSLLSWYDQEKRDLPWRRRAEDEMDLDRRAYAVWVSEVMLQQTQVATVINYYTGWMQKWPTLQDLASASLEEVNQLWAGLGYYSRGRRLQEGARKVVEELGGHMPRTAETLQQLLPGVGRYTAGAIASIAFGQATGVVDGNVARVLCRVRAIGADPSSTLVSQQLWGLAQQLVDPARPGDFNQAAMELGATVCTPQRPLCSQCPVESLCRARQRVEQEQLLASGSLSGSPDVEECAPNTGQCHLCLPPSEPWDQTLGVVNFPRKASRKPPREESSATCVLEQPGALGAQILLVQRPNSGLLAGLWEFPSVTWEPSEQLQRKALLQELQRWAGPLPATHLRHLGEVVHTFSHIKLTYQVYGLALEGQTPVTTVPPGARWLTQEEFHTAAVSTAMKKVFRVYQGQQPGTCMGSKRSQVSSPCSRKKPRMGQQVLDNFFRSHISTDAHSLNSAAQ

Variants of: B1
Assay: 8OG:A repair function score (normalized; synonymous = 0, nonsense = -1) (normalized log-likelihood score); higher = more repair activity (WT-like);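 also: cells sorted at 72 h after reporter transfection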
Conditions: with 8OG:A DNA repair reporter (GFP) in HEK-293 MUTYH KO cells

# example entries with known answers
- variant name: "S490Y"
  endpoint name: "8OG:A repair function score"
  reading: -0.00381
- variant name: "V414I"
  endpoint name: "8OG:A repair function score"
  reading: -0.137
- variant name: "S226A"
  endpoint name: "8OG:A repair function score"
  reading: 0.0017

**Query** Which measured 8OG:A repair function score value corresponds to G353W ?
**Result** -0.099

**Query** Which measured 8OG:A repair function score value corresponds to L289H ?
**Result** 0.0106

**Query** Which measured 8OG:A repair function score value corresponds to S518G ?
**Result** 0.0246

**Query** Which measured 8OG:A repair function score value corresponds to S367Y ?
**Result** -0.204

**Query** Which measured 8OG:A repair function score value corresponds to D94I ?
**Result** -0.0559

**Query** Which measured 8OG:A repair function score value corresponds to V348S ?
**Result** -1.25

**Query** Which measured 8OG:A repair function score value corresponds to L257Q ?
**Result** -0.72

**Query** Which measured 8OG:A repair function score value corresponds to S507D ?
**Result** -0.0424

**Query** Which measured 8OG:A repair function score value corresponds to M173W ?
**Result** -0.276

**Query** Which measured 8OG:A repair function score value corresponds to V62A ?
**Result** -0.00201
